From: paper PMC9398005

target: mouse Rbpj (53-474) K195E (mouse, UniProt P31266 53-474, K195E); test: ITC
Sequence (P31266 53-474 K195E): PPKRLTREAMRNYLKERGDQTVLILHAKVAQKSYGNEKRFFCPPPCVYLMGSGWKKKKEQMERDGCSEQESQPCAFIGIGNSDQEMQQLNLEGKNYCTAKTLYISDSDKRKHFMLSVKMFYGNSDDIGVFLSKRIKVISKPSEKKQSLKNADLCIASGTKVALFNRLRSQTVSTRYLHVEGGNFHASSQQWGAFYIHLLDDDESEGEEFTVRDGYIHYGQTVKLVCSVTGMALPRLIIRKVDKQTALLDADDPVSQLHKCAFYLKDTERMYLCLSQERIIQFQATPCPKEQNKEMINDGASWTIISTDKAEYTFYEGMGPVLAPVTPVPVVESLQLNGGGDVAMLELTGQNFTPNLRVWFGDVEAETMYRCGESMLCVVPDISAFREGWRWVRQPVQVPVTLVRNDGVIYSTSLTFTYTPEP
experimental readout: pKd
# reply with the number alone; pKd is -log10 of concentration in mol/L

Ask | What value of measured pKd is listed for VLLSRKRRRQHGQLWFPEGFKVSEASKK [Notch1 RAM peptide (human Notch1 residues 1754-1781)] ?
Reply | 7.66
